System: CCRIS mutagenicity, Ames/micronucleus/aberration tests
test.description: CCRIS mutagenicity studies
settings: Test System: AMES SALMONELLA TYPHIMURIUM; Strain/Indicator: TA100; Metabolic Activation: RAT, LIVER, S-9, AROCLOR 1254; Method: STANDARD PLATE
Active and inactive are the calls of the source. No rule for the calls is given here.
Tick one outcome: active, inactive

O=C1NC(=O)C(c2ccccc2)(c2ccc(O)cc2)N1 (centres undefined): inactive
COC(=O)Nc1nc2ccc(/C(=N/O)c3ccc(F)cc3)cc2[nH]1: inactive
COc1cc2c(c(OC)c1OC)-c1ccc(OC)c(=O)cc1[C@@H](NC(C)=O)CC2: inactive
OC(O)C(Cl)(Cl)Cl: inactive
CCCCS(=O)(=O)n1ncc(Cl)c(Cl)c1=O: active
NC(=O)c1ccc(N)cc1: inactive
[O-]/[N+](=N\O)c1ccccc1: inactive
C=C(Cl)Cl: active

Now consider a different compound.
I would be grateful if you could indicate the recorded call for ON=C1CCCCC1 .
inactive
